- study.system: T1, hFc-hC3d (human, UniProt P01024 1002-1303)
- T1 construct: range 1002-1303; expressed in HEK293F cells, purified on Protein A; also called hFc-hC3d fusion protein; not shown: human Fc of vector pCEP4-hFc
- T1 sequence (P01024 other isoform, or with tags, fused parts or gaps, form in doubt): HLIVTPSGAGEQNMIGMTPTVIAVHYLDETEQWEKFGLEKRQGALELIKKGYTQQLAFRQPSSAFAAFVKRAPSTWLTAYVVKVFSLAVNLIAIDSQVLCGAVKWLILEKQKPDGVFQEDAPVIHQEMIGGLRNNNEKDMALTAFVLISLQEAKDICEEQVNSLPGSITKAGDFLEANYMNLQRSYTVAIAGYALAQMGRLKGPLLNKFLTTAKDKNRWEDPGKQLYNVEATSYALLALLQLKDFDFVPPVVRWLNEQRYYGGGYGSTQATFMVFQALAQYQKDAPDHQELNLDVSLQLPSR
- method.summary: SPR (Biacore X100), hFc-hC3d captured by anti-human IgG CH2 mAb, Fab injected, 1:1 Langmuir
- Method: Surface plasmon resonance (SPR) for the measurement of kinetic and thermodynamic parameters of the binding of purified antibodies to hC3d or mC3d antigens was performed on a Biacore X100 instrument using Biacore reagents and software (GE Healthcare, Chicago, Ill.). […] The equilibrium dissociation constant (KD) was calculated from koff/kₒₙ.
# key: entry, value: Kd
readout.kind: Kd (nM)

INSERT INTO measurements (binder, endpoint_unit, number) VALUES
  ('5S8 (Fab, V domains shown, Chimeric rabbit/human Fab, kappa, with 6xHis tag in SPR, zymosan and JeKo-1 assays; also called Fab 5S8; 5S8 r/h-IgG1k) VH: QSVEESGGRLVTPGTPLTLTCTVSGFSLSSYAMTWVRQAPGKGLEWIGVIGTSGMRYYANWAKGRFTISKTSTTVDLKITSPTTEDTATYFCARANFYVGNDESTDAFDPWGPGTLVTVSS VL: ALVMTQTPPSLSASVGETVRIRCLASEDIYNTISWYQQKPGKPPTLLIYGASNLKSGVPPRFSGSGSGTDYTLTIGGVQSEDAATYYCLGGYSYSSTGLTFGAGTKVEIK', 'nM', 3.35),
  ('3N07 (Fab, V domains shown, Chimeric rabbit/human Fab, kappa, with 6xHis tag; also called Fab 3N07; 3N07 r/h-IgG1k) VH: QSLEESGGRLVTPGTPLTLTCTVSGFSLSRYTMAWVRQAPGKGLEYIGWIDSSGSTYYASWAKGRFTISKTSSTTVDLKMTSLTTEDTATYFCASGNDGGDPLYYGMDPWGPGTLVTVSS VL: DGVMTQTPSSTSAAVGGTVTIKCQASQSIRSWLSWYQQKPGQPPKLLIYEASKLASGVPSRFKGSRSGTEYTLAISGVQREDAATYYCLGSIASDDTAFGAGTNVEIK', 'nM', 3.1),
  ('3N02 (Fab, V domains shown, Chimeric rabbit/human Fab (rabbit variable domains, human kappa constant domain) with 6xHis tag in SPR, zymosan ELISA and flow cytometry; also called 3N02 r/h-IgG1k) VH: QKQLVESGGRLVTPGGSLTLTCTISGIDLNTYGMTWVRQAPGKGLEYIGIIVSSGNTYYANWAQGRFTISKTSTTVDLKMTSLTASDTATYFCARGLGRAYSSGYGMDGWGPGTLVTVSS VL: DPVLTQTPSSTSAAVGGTVTIKCQASQNIYTSLAWYQQKPGQPPKLLIYGASNLASGVPSRFKGSRSGTEYTLTISGVEREDAATYYCLGSYTQIDTTFGGGTKLEIK', 'nM', 13.3);
